- TESTED SYSTEM: human topoisomerase II (Homo sapiens, UniProt P11388)
- Construct: Topo II was purified from late log phase suspension cultures of HeLa WIS; endogenous in cells; host or cells: HeLa WIS
- Sequence (P11388 whole entry): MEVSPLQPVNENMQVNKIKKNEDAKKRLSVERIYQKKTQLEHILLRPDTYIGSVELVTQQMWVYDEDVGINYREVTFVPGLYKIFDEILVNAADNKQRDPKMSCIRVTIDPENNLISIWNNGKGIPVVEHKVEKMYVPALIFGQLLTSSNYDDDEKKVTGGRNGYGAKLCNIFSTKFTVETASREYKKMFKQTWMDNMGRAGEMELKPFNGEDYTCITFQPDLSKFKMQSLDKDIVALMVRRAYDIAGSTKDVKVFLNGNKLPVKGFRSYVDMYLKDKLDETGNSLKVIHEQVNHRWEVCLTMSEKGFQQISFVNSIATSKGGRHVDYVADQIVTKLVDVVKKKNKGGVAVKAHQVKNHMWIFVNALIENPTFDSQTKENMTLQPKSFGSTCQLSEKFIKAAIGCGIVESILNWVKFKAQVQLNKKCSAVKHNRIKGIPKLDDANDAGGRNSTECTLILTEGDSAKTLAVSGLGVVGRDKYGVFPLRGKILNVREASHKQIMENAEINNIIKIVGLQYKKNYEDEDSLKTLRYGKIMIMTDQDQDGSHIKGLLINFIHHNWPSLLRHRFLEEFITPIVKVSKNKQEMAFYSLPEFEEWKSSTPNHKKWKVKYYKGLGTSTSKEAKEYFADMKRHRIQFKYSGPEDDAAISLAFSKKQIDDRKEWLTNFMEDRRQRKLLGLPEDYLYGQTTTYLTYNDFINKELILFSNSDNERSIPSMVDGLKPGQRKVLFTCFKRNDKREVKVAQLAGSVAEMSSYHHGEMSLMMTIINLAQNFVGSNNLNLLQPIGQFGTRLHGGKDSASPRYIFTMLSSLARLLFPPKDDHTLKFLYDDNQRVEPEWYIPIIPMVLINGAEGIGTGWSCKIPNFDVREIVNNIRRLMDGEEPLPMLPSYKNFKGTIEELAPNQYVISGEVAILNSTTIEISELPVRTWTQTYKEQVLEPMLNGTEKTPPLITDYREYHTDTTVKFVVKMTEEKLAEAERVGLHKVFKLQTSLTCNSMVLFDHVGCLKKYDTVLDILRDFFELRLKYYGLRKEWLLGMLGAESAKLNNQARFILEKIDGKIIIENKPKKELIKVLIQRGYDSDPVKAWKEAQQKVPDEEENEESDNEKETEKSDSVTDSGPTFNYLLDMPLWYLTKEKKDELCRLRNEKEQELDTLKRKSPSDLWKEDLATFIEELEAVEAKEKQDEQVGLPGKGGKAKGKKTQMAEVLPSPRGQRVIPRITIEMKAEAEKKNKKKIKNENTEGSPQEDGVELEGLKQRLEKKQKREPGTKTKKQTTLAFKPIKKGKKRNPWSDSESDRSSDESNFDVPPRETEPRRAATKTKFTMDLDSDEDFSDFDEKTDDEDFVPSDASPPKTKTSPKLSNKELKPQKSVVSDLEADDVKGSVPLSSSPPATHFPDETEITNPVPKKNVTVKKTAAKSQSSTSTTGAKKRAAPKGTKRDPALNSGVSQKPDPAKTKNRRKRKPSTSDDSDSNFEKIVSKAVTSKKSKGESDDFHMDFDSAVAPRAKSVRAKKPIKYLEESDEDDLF
- ASSAY DETAILS: Mammalian topoisomerase II inhibition assay (topo II covalently attached to DNA, relative to mAMSA)
- Assay type: biochemical
- MEASUREMENT PARAMETERS: footnote c: bell-shaped dose response curve noted; 50% of maximal effect of mAMSA; read-out: topo II inh. EC50
- Source text: The inhibition of human topoisomerase II (hereafter topo II) was quantitated by a procedure adapted from that described by Trask et al., EMBO J., 3, 671-676 (1984). The assay quantitates the amount of topo II covalently attached to DNA at equilibrium during a topo II reaction. This assay determines the potential of a compound to stabilize this complex, which potential is closely related to the cytotoxicity of the compound. […]
MEASUREMENT NAME: EC50
Record the result as a number with its unit.

Reference set (4 entries):
{"COMPOUND": "Cc1cc(-c2c(F)cc3c4nn(CCc5ccccc5O)c(=O)c-4cn(C4CC4)c3c2F)cc(C)n1 [Example 39]", "EC50": "9.6 µM"}
{"COMPOUND": "COc1ccc(-n2nc3c4cc(F)c(-c5cc(C)nc(C)c5)c(F)c4n(C4CC4)cc-3c2=O)cc1 [Example 23]", "EC50": "6.8 µM"}
{"COMPOUND": "Cc1cc(-c2c(F)cc3c4nn(CCN(C)C)c(=O)c-4cn(C4CC4)c3c2F)cc(C)n1.O=C(O)/C=C/C(=O)O [Example 1]", "EC50": "2.6 µM"}
{"COMPOUND": "Cc1cc(-c2c(F)cc3c4nn(CCNCCO)c(=O)c-4cn(C4CC4)c3c2F)cc(C)n1 [Example 17]", "EC50": "3.3 µM"}

Exercise: Consider the compound Cc1cc(-c2c(F)cc3c4nn(-c5ccncc5)c(=O)c-4cn(C4CC4)c3c2F)cc(C)n1 [Example 30] . State its measured EC50.
Solution: 8 µM

The origin of these recorded values is patent US5334595A.
